Data provenance is the SangsterLogP compilation.

ASSAY METRIC: logP

Cc1c(CNc2c(Cl)cccc2Cl)cnc2nc(N)nc(N)c12; 2
Cc1ccccc1NCc1cnc2nc(N)nc(N)c2c1C; 1.98
Cc1cc(NCc2cnc3nc(N)nc(N)c3c2C)ccc1Cl; 2.03
Cc1cccc(Cl)c1NCc1cnc2nc(N)nc(N)c2c1C; 2.05
Cc1c(CNc2ccccc2)cnc2nc(N)nc(N)c12; 2.02
